Collected melting point values appear next to each entry.
recorded endpoint: melting point

>>> reported("NC(Cc1cc2nccnc2cc1CP(=O)(O)O)C(=O)O (stereo not given)")
"250 °C"
>>> reported("Cc1oc(-c2ccc(C(F)(F)F)cc2)nc1COc1ccc(CN(O)C(N)=O)cc1")
"146 to 147 °C"
>>> reported("COc1ccc(CN2C(=O)C3(COc4cc5c(cc43)CCO5)c3c2ccc2ncccc32)cc1 (stereo not given)")
"169 to 170 °C"
>>> reported("CC(=O)Nc1ccc2oc(C(=O)O)cc2c1")
"> 300 °C"
>>> reported("O=C(O)COc1nnc(C(Cl)Cl)s1")
"114 °C"
>>> reported("CN1c2ccccc2-c2nc3ccc(/C=C/C#N)cc3c3cccc1c23")
"262 to 264 °C"
>>> reported("O=[N+]([O-])c1ccc(Oc2ccc(-n3cncn3)cc2)cc1")
"131 to 132 °C"
>>> reported("O=P(O)(O)Oc1cccc(-c2cn3c(n2)sc2ccccc23)c1")
"205 to 208 °C"
>>> reported("COc1c(C2CCN(CCCCNC(=O)c3c(C)nc(-c4ccc(Cl)cc4)n3C)CC2)ccc2c1CCCC2")
"150 °C"
>>> reported("CCc1c(C(=O)c2cc(C)cc(C=CC#N)c2)[nH]c(=O)[nH]c1=O")
"305 to 306 °C"
>>> reported("COc1cc2c(cc1OC)CN(C(=O)Cc1ccc(OC)c([N+](=O)[O-])c1)CC2")
"175 °C"
>>> reported("CCOC(=O)/C=C/C(=C(c1ccc(F)cc1)c1ccc(F)cc1)C(C)C")
"66 to 67 °C"
>>> reported("CCCCCNC(=NC#N)Nc1cccnc1")
"130 to 132 °C"
>>> reported("CCOc1nc(N2CCN(C(=O)CCC(=O)O)CC2)nc(N2CCS(=O)CC2)c1[N+](=O)[O-]")
"198 to 200 °C"
>>> reported("O=C(NCCc1ccccc1)c1ccccc1-c1ccccc1CNS(=O)(=O)c1cccc([N+](=O)[O-])c1")
"145 °C"
>>> reported("Cn1c(=O)[nH]c2cc(Cl)cc(Cl)c2c1=O")
"247 to 250 °C"
>>> reported("O=C1OC(=O)c2cc(C#Cc3cccc4ccccc34)ccc21")
"220 to 222 °C"
>>> reported("COC(=O)CCCc1cc2cc(Cl)ccc2n1S(=O)(=O)c1ccc2c(c1)CCN2C(C)=O")
"162 to 165 °C"
>>> reported("N#Cc1cc2c3ccccc3[nH]c(=O)n2n1")
"302 to 304 °C"
>>> reported("CCOC(=O)c1ccc(OCCc2c(CCNS(=O)(=O)Cc3ccc(Cl)c(Cl)c3)n(C(c3ccccc3)c3ccccc3)c3ccc(Cl)cc23)cc1F")
"83 to 85 °C"

* * *

recorded endpoint: melting point (°C)

>>> reported("Cc1ccc2cccc(OCc3c(Cl)ccc(S(=O)(=O)NC(C)(C)C)c3Cl)c2n1")
191
>>> reported("COC(=O)c1cccc(OCC(=O)NN=C2C(=O)Nc3ccc(I)cc32)c1")
237

* * *

recorded endpoint: melting point

>>> reported("O=c1[nH]c2cc([N+](=O)[O-])c(S(=O)(=O)N(CCO)CCO)cc2[nH]c1=O")
"310 to 321 °C"
>>> reported("O=C(NC1(CO)NCC(O)C(O)C1O)c1ccccc1 (centres undefined)")
"154 to 156 °C"
>>> reported("N#CCc1ccc(CCOc2ccc([N+](=O)[O-])cc2)nc1")
"94 to 95 °C"
>>> reported("Nc1ccc(OC2=C(Oc3ccc(N)cc3)C(F)(F)C(F)(F)C2(F)F)cc1")
"78 to 83 °C"
>>> reported("COC(=O)c1nc2ccc(CO)cc2cc1C")
"84.2 °C"
>>> reported("CS(=O)c1ccc(-n2cnc3ccc(-c4nnc(SCc5cccc(C#N)c5)o4)cc32)cc1 (centres undefined)")
"152 to 153 °C"
>>> reported("O=C(O)c1c[nH]c2c(-c3ccncc3)c(-c3ccc(F)cc3)nn2c1=O")
"215 to 218 °C"
>>> reported("Cc1c(CC(=O)O)c2cc(O)ccc2n1C(=O)c1ccc(F)cc1")
"180 to 182 °C"
>>> reported("CC(C)(C)c1cc(N=C2CCCc3cc4c(nc32)C(=Nc2cc(C(C)(C)C)cc(C(C)(C)C)c2)CCC4)cc(C(C)(C)C)c1")
"129 to 132 °C"
